TARGET_UNDER_TEST: PFV PR-RT (protease-reverse transcriptase) (prototype foamy virus, UniProt P14350 1-751)
RUN_DESCRIPTION: fluorescence anisotropy; 10 mM EDTA, no Mg2+; 5 nM substrate; 50 mM Tris/HCl pH 8.0, 80 mM KCl, 10 mM EDTA, 0.5 mM DTT, 25 C
TEST_SETTINGS: protein: recombinant; label: 5'-DY647 on RNA; 24 bp hybrid; RNA template overhangs 5' 5 nt and 3' 11 nt
RECORDED_ENDPOINT: pKd
Remember, pKd is on a log scale: it is -log10 of the molar concentration.

Need pKd of 24/40-mer DNA/RNA primer/template (DNA:RNA) RNA: CUAAUUCCGCUUUCCCCUCUCCUGGUGAUCCUUUCCAUCC DNA: ATCACCAGGAGAGGGGAAAGCGGA , thanks.
8.04
